molecular target: T1, mTfR-1 P335A on Expi293 cells (mouse, UniProt Q62351 1-763); experiment: FACS, transfected Expi293 cells
T1 construct: whole, on cells
T1 sequence (Q62351 whole entry P335A): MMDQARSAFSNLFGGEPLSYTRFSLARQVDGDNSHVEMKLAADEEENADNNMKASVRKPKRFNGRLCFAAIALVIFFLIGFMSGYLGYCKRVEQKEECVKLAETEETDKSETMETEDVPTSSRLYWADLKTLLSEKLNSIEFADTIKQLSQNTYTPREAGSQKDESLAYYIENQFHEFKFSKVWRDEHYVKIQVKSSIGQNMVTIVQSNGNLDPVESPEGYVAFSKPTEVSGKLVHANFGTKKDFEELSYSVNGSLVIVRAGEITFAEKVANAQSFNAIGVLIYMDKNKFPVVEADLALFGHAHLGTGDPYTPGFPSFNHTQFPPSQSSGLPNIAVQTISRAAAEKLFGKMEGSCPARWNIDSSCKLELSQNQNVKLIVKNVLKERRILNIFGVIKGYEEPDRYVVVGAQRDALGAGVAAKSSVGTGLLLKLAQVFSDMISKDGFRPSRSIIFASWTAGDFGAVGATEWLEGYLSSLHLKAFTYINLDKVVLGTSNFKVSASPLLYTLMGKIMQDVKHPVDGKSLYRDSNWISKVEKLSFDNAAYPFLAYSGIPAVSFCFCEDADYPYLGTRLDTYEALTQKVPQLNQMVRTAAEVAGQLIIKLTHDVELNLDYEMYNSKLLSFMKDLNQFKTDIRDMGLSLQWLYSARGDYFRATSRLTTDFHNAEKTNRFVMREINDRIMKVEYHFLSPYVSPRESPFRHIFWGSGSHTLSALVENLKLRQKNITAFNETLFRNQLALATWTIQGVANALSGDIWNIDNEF
result-type: % double-positive cells vs WT (%)
API: value field is a number in %; no unit string.

Example cases with answers are listed next.
[[record]]
binder = "Clone C variant 13 VNAR-hFc (Fc fusion, not shown: a dimerising Fc or GST, also called Clone C v13; Clone C var; 13) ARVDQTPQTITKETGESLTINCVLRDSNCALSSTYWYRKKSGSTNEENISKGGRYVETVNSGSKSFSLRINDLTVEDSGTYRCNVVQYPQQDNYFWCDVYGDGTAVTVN"
result_type = "% double-positive cells vs WT"
measured = 75

[[record]]
binder = "8D3 antibody (anti-mouse TfR-1 control; 8D3-hFc formatted antibody) (antibody, V domains shown) VH: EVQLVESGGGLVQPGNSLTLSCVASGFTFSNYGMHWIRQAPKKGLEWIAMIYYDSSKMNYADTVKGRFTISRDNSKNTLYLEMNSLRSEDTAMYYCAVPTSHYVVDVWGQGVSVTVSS VL: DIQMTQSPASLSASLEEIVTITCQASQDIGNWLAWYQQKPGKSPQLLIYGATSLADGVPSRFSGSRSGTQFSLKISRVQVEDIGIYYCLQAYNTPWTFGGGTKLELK"
result_type = "% double-positive cells vs WT"
measured = 94

[[record]]
binder = "Clone C variant 18 VNAR-hFc (Fc fusion, not shown: a dimerising Fc or GST, also called Clone C v18; Clone C var; 18) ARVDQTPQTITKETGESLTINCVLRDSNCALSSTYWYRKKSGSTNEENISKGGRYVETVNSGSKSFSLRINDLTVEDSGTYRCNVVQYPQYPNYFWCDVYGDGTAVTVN"
result_type = "% double-positive cells vs WT"
measured = 138


Fill blank: measured % double-positive cells vs WT of the binder Clone C VNAR-hFc fusion (Fc fusion, not shown: a dimerising Fc or GST, bivalent VNAR-Fc; also called Clone C-hFc) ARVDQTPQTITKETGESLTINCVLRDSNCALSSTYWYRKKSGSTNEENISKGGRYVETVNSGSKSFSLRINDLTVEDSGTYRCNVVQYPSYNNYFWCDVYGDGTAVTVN is ____.
169
